Target: Luciferin 4-monooxygenase (Photinus pyralis) (UniProt P08659)
Sequence (P08659 whole entry, looked up): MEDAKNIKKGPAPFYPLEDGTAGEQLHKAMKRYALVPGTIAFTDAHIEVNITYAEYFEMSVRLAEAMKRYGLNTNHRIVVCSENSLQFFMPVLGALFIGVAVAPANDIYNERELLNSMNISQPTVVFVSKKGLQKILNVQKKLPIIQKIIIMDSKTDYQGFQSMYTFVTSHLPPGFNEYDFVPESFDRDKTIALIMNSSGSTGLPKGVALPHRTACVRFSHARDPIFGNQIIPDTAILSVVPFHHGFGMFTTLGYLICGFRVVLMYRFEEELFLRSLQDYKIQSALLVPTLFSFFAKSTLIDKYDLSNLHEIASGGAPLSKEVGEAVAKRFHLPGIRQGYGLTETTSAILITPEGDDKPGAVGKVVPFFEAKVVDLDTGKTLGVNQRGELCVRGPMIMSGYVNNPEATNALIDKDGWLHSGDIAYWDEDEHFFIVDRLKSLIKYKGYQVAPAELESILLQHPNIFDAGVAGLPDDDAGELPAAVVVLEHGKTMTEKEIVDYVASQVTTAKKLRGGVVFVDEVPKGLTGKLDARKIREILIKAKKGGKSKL
Assay: qHTS profiling assay for firefly luciferase inhibitor/activator using purifed enzyme and Km concentrations of substrates (counterscreen for miR-21 project); note: nearly all actives have a fitted effect of over 55% in size
Details: purified FLuc, luminescence inhibition; series mostly up to 57.5 µM
Hit rate of the full screen: of about 360,000 compounds, about 25,000 (6.9%) were called active. Inconclusive results (about 9%) are left out. Calls come from the whole dose curve; as a rule, active = well fitted inhibition curve with a large enough effect; inconclusive = small, poorly fitted or top-dose-only effect; inactive = flat fitted curve, though single readings scatter. The entries come from a sample that favours actives as a whole.
Answer with one of the outcomes given here: active, inactive

Reference set (5 entries):
O=C(CCc1ccccc1F)N1CCN(c2ccccc2)CC1; inactive
Cc1c(Cl)cccc1NC(=O)N1CCN(C(=O)c2nsc3ccccc23)CC1; inactive
NC(=O)C1CCN(C(=O)c2cccc(NC(=O)c3nsc4ccccc34)c2)CC1; active
COc1ccc(C)cc1Nc1nc2ccccc2c2nnc(C)n12; inactive
Cc1ccc(CCNC(=O)c2ccc(CNS(=O)(=O)c3ccc(C)cc3)cc2)cc1; inactive

Consider the record given below.
Query :: Just curious, what result did O=C1/C(=C/c2cccs2)CCC1C1CCCC1 (centres undefined) get here?
Result :: active

---

Molecular target: Luciferin 4-monooxygenase (Photinus pyralis) (UniProt P08659)
Assay: qHTS profiling assay for firefly luciferase inhibitor/activator using purifed enzyme and Km concentrations of substrates (counterscreen for miR-21 project); note: nearly all actives have a fitted effect of over 55% in size
Details: purified FLuc, luminescence inhibition; series mostly up to 57.5 µM
Among all 360,000 compounds or so, about 25,000 (6.9%) were called active. About 9% were inconclusive and are not listed. Calls come from the whole dose curve; as a rule, active = well fitted inhibition curve with a large enough effect; inconclusive = small, poorly fitted or top-dose-only effect; inactive = flat fitted curve, though single readings scatter. The sample as a whole holds a higher share of actives than the screen did.
Response enum: active, inactive

Solved cases below.
O=C(NCc1cn2ccsc2n1)Nc1cccc(Cl)c1; inactive
C=CCn1c(=O)c(C(=O)Nc2ncccc2O)c(O)c2ccccc21; inactive
COc1ccc(-c2nnc(SCC(=O)c3cccs3)o2)c(OC)c1; active
CCOC(=O)c1cccc(NC(=O)CCOc2ccccc2)c1; inactive
CC(=O)c1ccc(NC(=O)c2ccc3c(Cl)c4c(nc3c2)CCCC4)cc1; inactive
Cc1cc(N2CCOCC2)nc(-c2ccc(Br)cc2)n1; inactive
Clc1ccc(CSc2nncn3c2cc2occc23)cc1; inactive
Cc1ccc(-c2nc(SCc3ccc(Br)cc3)n3[nH]c(=O)cc3n2)cc1; inactive
COc1ccc2nc(SCC(=O)Nc3c(C)cc(C)cc3C)[nH]c2c1; inactive
Cc1ccc2nc(-c3ccc(Br)cc3)cn2c1; active

Query :: Kindly provide the recorded test outcome for the following molecule: Oc1ccccc1-c1nc(/C=C/c2ccc(F)cc2)no1
Result :: active

Query :: Per the records of this test, what outcome belongs to Cc1cccc(N2CCN(C3=C(c4ccccc4)C(=O)c4ccccc43)CC2)c1C ?
Result :: inactive

Query :: Could you kindly confirm the outcome this assay logged for CCCC(=O)Nc1cccc(-c2cn3ccsc3n2)c1 ?
Result :: active

Query :: Hello, I am checking results. What call was entered for CCOCCCNC(=O)c1ccc2nc(CCc3ccccc3)oc2c1 ?
Result :: inactive

Query :: Hi team, can someone confirm the assay call for CCOC(=O)c1cnc(Nc2nc3ccccc3o2)nc1CSC(=S)N1CCCCC1 ?
Result :: active

Query :: Could you please tell me the result logged for Cc1ccc(OC(=O)CSc2nnc(-c3cccs3)o2)cc1 in this assay?
Result :: inactive

---

Target: Luciferin 4-monooxygenase (Photinus pyralis) (UniProt P08659)
Assay: qHTS profiling assay for firefly luciferase inhibitor/activator using purifed enzyme and Km concentrations of substrates (counterscreen for miR-21 project); note: nearly all actives have a fitted effect of over 55% in size
Settings: purified FLuc, luminescence inhibition; series mostly up to 57.5 µM
Hit rate of the full screen: of about 360,000 compounds, about 25,000 (6.9%) were called active. Inconclusive results (about 9%) are left out. The call rests on the fitted dose curve; in most records, active means well fitted inhibition curve with a large enough effect; inconclusive means small, poorly fitted or top-dose-only effect; inactive means flat fitted curve, though single readings scatter. The list comes from a sample in which actives are over-represented; it also holds close analogues and randomly drawn compounds.
Bench note: report the call from active, inactive

COc1ccccc1CC(=O)Nc1ccc(F)cc1F; inactive
Cc1onc(-c2ccccc2Cl)c1C(=O)NCCn1ccc2ccccc21; inactive

Query :: Just curious, what result did Cc1ccc(C(=O)NNC(=O)c2cc3cc4ccccc4nc3s2)cc1 get here?
Result :: inactive

Query :: // outcome(item) with item = CC(=O)Nc1ccc(NC(=O)[C@@H](NC(=O)c2cccc(C)c2)C(C)C)cc1
Result :: inactive

Query :: How was Cc1ccc(-c2noc(-c3ccccc3C(=O)NCC3CCCO3)n2)cc1 (centres undefined) classified in this test?
Result :: active

Query :: Dear all, I need the recorded test outcome for O=C(Nc1ccccc1)c1ccc(NC(=O)c2cccs2)cc1 , thank you.
Result :: inactive

Query :: What did this assay record as the result for Cc1cccc(Nc2nc(C)nc(N)c2S(=O)(=O)c2ccccc2)c1 ?
Result :: inactive

Query :: Hey, what did the test say about COCCNC(=S)N1CCC(NC(=O)C23CC4CC(CC(C4)C2)C3)CC1 ?
Result :: inactive

---

Target: Luciferin 4-monooxygenase (Photinus pyralis)
Assay: qHTS profiling assay for firefly luciferase inhibitor/activator using purifed enzyme and Km concentrations of substrates (counterscreen for miR-21 project); note: nearly all actives have a fitted effect of over 55% in size
Conditions: purified FLuc, luminescence inhibition; series mostly up to 57.5 µM
The whole screen tested about 360,000 compounds, of which about 25,000 (6.9%) were called active. Roughly 9% stayed inconclusive and do not appear here. Calls come from the whole dose curve; as a rule, active = well fitted inhibition curve with a large enough effect; inconclusive = small, poorly fitted or top-dose-only effect; inactive = flat fitted curve, though single readings scatter. For the sample, actives were picked, then their nearest neighbours and some compounds at random.
Just give me one of these, please: active, inactive

Observe how each entry below is paired with its result.
Cc1nc(CN(C)C(=O)CC2C(=O)NCCN2Cc2ccc(F)cc2)cs1 (stereo not drawn); inactive
Cc1cccc(OCCC(=O)OCc2csc(CC(=O)Nc3ccccc3C)n2)c1; inactive
Cc1[nH]n(-c2ccccc2)c(=O)c1CCOC(=O)c1ccc(C(F)(F)F)cc1; active
CC1=C(C(=O)OCc2ccccc2)C(c2ccc(C(F)(F)F)cc2)NC(=O)N1CCCCCC(=O)O (stereo not drawn); inactive
CCOc1ccc(C(=O)CCN2CCOCC2)cc1; inactive

Query :: Which outcome did this test record for the compound COc1ccc(/C=C2\SC(=O)N(CCC(=O)NC3CCS(=O)(=O)C3)C2=O)cc1 (stereo not drawn) ?
Result :: active

Query :: Per the records of this test, what outcome belongs to CCOc1c(CNCc2ccc(C(=O)O)cc2)cccc1OC ?
Result :: inactive

Query :: # fetch the recorded call for Cc1[nH]n(C(N)=S)c(=O)c1N=Nc1ccc(Cl)cc1Cl here
Result :: active

---

Biological target: Luciferin 4-monooxygenase (Photinus pyralis) (UniProt P08659)
Experiment: qHTS profiling assay for firefly luciferase inhibitor/activator using purifed enzyme and Km concentrations of substrates (counterscreen for miR-21 project); note: nearly all actives have a fitted effect of over 55% in size; note: potency is the fitted concentration of half-maximal effect
Conditions: purified FLuc, luminescence inhibition; series mostly up to 57.5 µM
Source text: MLPCN Grant: 1 R21 NS059478-01 (miR-21 grant) Assay Provider: NCGC NCGC Assay Overview: Firefly (Photinus pyralis) luciferase is one of the most commonly used transcriptional reporters for a number of reasons. […] Although light produced in a bioluminescence reaction is of lower intensity than that produced during fluorescence emission, this is offset by little to no background light inherent to luminescent assays. […]
Out of some 360,000 compounds screened, about 25,000 (6.9%) were called active. Another 9% or so got no clear call; they are omitted. The sample holds actives, similar compounds and a random draw of the others, so the mix is not that of the screen.
measure name: Potency

Some molecules with known Potency results, for comparison:
COc1ccc(-c2cc(=O)c3c(O)cc(O[C@@H]4O[C@H](CO[C@@H]5O[C@@H](C)[C@H](O)[C@@H](O)[C@H]5O)[C@@H](O)[C@H](O)[C@H]4O)cc3o2)cc1O; inactive
COc1cccc(-c2nc(CS(=O)(=O)CC(=O)N3CCN(c4cc(C)ccc4C)CC3)c(C)o2)c1; inactive
COc1ccc(-n2nc(C(=O)NCC(=O)N3CCN(c4ccccc4OC)CC3)c3ccccc3c2=O)c(OC)c1; 1.69 µM (active)
O=C(NNC(=S)Nc1ccc(Br)cc1Cl)c1ccco1; 16.9 µM (active)
COc1ccc(OC)c(NC(=O)CSc2nc3ccccc3nc2N2CCCCC2)c1; inactive

Let's switch to this molecule now.
Query :: I'd like to know its Potency. The molecule in question is CC(=O)C1=C(C)NC(=O)NC1c1cc(Br)ccc1OCC#N (stereo unspecified)
Result :: inactive

---

Target: Luciferin 4-monooxygenase (Photinus pyralis) (UniProt P08659)
Test: qHTS profiling assay for firefly luciferase inhibitor/activator using purifed enzyme and Km concentrations of substrates (counterscreen for miR-21 project); note: nearly all actives have a fitted effect of over 55% in size
Conditions: purified FLuc, luminescence inhibition; series mostly up to 57.5 µM
Hit rate of the full screen: of about 360,000 compounds, about 25,000 (6.9%) were called active. Not shown: some 9% with an inconclusive outcome. Calls follow the shape of the dose curve; as a rule, active = well fitted inhibition curve with a large enough effect; inconclusive = small, poorly fitted or top-dose-only effect; inactive = flat fitted curve, though single readings scatter. The full list was thinned out, with actives kept by preference.
Answer with one of the outcomes given here: YES (active), NO (inactive)

Reference set, count: 5
CCc1cccc(NC(=O)CN(c2ccc(C)c(C)c2)S(=O)(=O)c2ccsc2C(=O)OC)c1; NO
c1ccc(CNc2ncnc3[nH]ncc23)cc1; NO
CCOc1ccc(OCC)c(NC(=O)c2cc(C)nc3c2c(C)nn3-c2cccc(Cl)c2C)c1; NO
O=C(Nc1ccccc1N1CCN(C(=O)c2ccccc2)CC1)c1ccc2c(c1)OCO2; NO
CCCCSc1ncnc2c1sc1nc(N3CCOCC3)c3c(c12)CCCC3; NO

Query :: State the result this test recorded for Cc1cc(/C=C(/C#N)C(=O)Nc2ccc(Cl)cc2)c(C)n1-c1cccnc1 .
Result :: NO

Query :: Outcome logged for COc1cccc(NC(=O)CS(=O)(=O)c2cn(CC(=O)N3CCOCC3)c3ccccc23)c1 in this assay:
Result :: NO

Query :: Name the outcome recorded for Cc1nn(C)cc1S(=O)(=O)N1CCN(c2ccc(F)cc2)CC1 in the assay.
Result :: NO

Query :: Assay outcome for Cc1cc(C(F)(F)F)n2ncc(-c3ccccc3)c2n1 : what was it?
Result :: NO

Query :: What is the recorded call for this molecule in the test? COc1ccccc1-c1noc(CSc2nnc(-c3ccccc3)n2-c2ccc(C)c(C)c2)n1
Result :: NO

Query :: Outcome logged for CC(=O)Nc1cccc(C(=O)OCC(=O)NCc2cc(C)c(O)c(C)c2)c1 in this assay:
Result :: YES

Query :: Which outcome was entered for the molecule Cc1ccc(-c2noc(CC(c3ccccc3)c3ccccc3)n2)cc1 in this test?
Result :: NO

Query :: What classification did Cn1c(=O)n(C)c2cc(S(=O)(=O)Nc3ccc(F)cc3)ccc21 end up with in this test?
Result :: NO

Query :: Name the outcome recorded for COc1ccc(C(=O)OCC(=O)Nc2cccc(C(C)=O)c2)cc1OC in the assay.
Result :: NO

Query :: Answer briefly: the call reported for Cc1ccc2c(c1)N(CC(=O)NCC1CCCO1)C(=O)CO2 (centres undefined) in this assay.
Result :: NO

Query :: # outcome recorded in this test, key = CC(C)(C)c1ccc(/C=C/C(=O)Nc2ncccn2)cc1
Result :: YES

Query :: Per the assay record, what outcome was assigned to Cc1nn(C)c2c1c(C(F)(F)F)cc(=O)n2C(C)C(=O)NCc1ccc(Cl)cc1 (centres undefined) ?
Result :: NO
